Overview of recorded solubility for various molecules
assayOverview: Solubility in phosphate buffer assessed per 100 g at pH 7
Type: physicochemical

structureSmilesString	recordedResult
CCOC(=O)COc1ccc(/C=C/c2cc(O)cc(O)c2)cc1	1.4 mg

Data request: Return solubility for the following molecule: COC(=O)CCCCCOc1ccc(/C=C/c2cc(O)cc(O)c2)cc1
Data returned: 0.085 mg

Data request: Return solubility for the following molecule: O=C(O)CCCCCOc1ccc(/C=C/c2cc(O)cc(O)c2)cc1
Data returned: 10.54 mg

Data request: Return solubility for the following molecule: Oc1ccc(/C=C/c2cc(O)cc(O)c2)cc1
Data returned: 3.24 mg

Data request: Return solubility for the following molecule: O=C(O)COc1ccc(/C=C/c2cc(O)cc(O)c2)cc1
Data returned: 313.8 mg

* * *

assayOverview: Aqueous solubility assessed per 100 g in pure water
conditionSet: pH 7
readoutName: solubility (mg)
Report as a plain number; the unit mg is understood.

molecule	solubility [mg]
Oc1ccc(/C=C/c2cc(O)cc(O)c2)cc1 [RESVERATROL]	3.24

Data request: Return solubility for the following molecule: CCOC(=O)COc1ccc(/C=C/c2cc(O)cc(O)c2)cc1
Data returned: 1.93

Data request: Return solubility for the following molecule: O=C(O)CCCCCOc1ccc(/C=C/c2cc(O)cc(O)c2)cc1 [RESVERATROL HEXANOIC ACID]
Data returned: 4.52

Data request: Return solubility for the following molecule: O=C(O)COc1ccc(/C=C/c2cc(O)cc(O)c2)cc1
Data returned: 80.91

Data request: Return solubility for the following molecule: COC(=O)CCCCCOc1ccc(/C=C/c2cc(O)cc(O)c2)cc1
Data returned: 0.032

* * *

assaySystem: Albumin (Homo sapiens)
assayOverview: Binding affinity to human serum albumin at 4 uM by UV-vis measurement
readoutName: Kd (nM)
Report as a plain number; the unit nM is understood.

Data request: Return Kd for the following molecule: O=C(O)CCCCCOc1ccc(/C=C/c2cc(O)cc(O)c2)cc1 [RESVERATROL HEXANOIC ACID]
Data returned: 382

* * *

assaySystem: Albumin (Homo sapiens, UniProt P02768)
Sequence (P02768 whole entry): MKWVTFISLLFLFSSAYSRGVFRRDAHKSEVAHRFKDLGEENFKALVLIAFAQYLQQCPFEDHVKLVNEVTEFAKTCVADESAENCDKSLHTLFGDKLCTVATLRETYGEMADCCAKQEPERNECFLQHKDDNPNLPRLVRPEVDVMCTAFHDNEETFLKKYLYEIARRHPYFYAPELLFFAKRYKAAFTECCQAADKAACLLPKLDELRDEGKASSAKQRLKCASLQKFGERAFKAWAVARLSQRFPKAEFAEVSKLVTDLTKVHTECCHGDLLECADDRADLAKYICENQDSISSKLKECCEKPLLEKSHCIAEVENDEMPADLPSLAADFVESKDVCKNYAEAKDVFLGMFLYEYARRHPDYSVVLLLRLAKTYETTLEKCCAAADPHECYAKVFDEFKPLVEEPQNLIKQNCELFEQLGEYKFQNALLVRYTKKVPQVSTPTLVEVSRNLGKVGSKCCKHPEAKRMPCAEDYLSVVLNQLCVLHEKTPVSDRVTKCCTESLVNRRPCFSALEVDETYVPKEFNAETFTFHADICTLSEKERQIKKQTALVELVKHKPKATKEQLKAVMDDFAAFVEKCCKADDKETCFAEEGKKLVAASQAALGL
assayOverview: Binding affinity to human serum albumin by fluorescence quenching measurement
Assay type: ADME
conditionSet: isolated protein
readoutName: Ka (×10⁵ /M)
Report as a plain number; the unit ×10⁵ /M is understood.

structureSmilesString	valueUnit	Ka
COC(=O)CCCCCOc1ccc(/C=C/c2cc(O)cc(O)c2)cc1	×10⁵ /M	3.05
CCOC(=O)COc1ccc(/C=C/c2cc(O)cc(O)c2)cc1	×10⁵ /M	1.14
O=C(O)CCCCCOc1ccc(/C=C/c2cc(O)cc(O)c2)cc1	×10⁵ /M	67
Oc1ccc(/C=C/c2cc(O)cc(O)c2)cc1	×10⁵ /M	1.64

Consider the additional molecule presented here.
Data request: Return Ka for the following molecule: O=C(O)COc1ccc(/C=C/c2cc(O)cc(O)c2)cc1
Data returned: 2.95
